Each recorded value in this set is attributed to the supplement of paper PMC13380429.

# Test system: U2OS
# Method Notes: cell viability relative to DMSO; higher = less toxic
# Condition Description: 72 h; 10000 nM
Could you please report measured cell viability for the items listed next?
Give bare numbers, in %.

CCN(CC)CCOc1ccccc1C(=O)CCc1ccccc1 ... 103
O=C(O)CN1C(=O)c2cccc3cccc(c23)C1=O ... 105
CN(C)c1nc(N)c(C(=O)Nc2cccnc2)nc1Cl ... 105
CO/N=C(\C(=O)N[C@@H]1C(=O)N2C(C(=O)OCOC(=O)C(C)(C)C)=C(C)CS[C@H]12)c1csc(N)n1 ... 99.5
CN1CCN(c2ccc(-c3cccc(CN4CCOCC4)c3)cc2NC(=O)c2c[nH]c(=O)cc2C(F)(F)F)CC1 ... 100
C[C@@]12CC[C@@H]3[C@@](CC[C@H]4[C@@]3(C)CCC[C@@]4(C)C(=O)O)(CC1=O)C2 ... 98.1
N=C(Nc1ccccc1)c1cccs1 ... 95.7
CC(C)(Cc1c[nH]c2ccc(Cl)cc12)NCCOc1ccccc1OCC1CC1 ... 1.5

Items follow; give cell viability for each.
1. NC(=O)c1cn(Cc2c(F)cccc2F)nn1 [rufinamide]
2. c1cc(Cc2cnc[nH]2)ccn1

Result:
1. 104
2. 98.4

Items follow; give cell viability for each.
1. Nc1cc(-c2ccncc2)c[nH]c1=O
2. CC(C)NCC(O)c1cc(O)cc(O)c1 (centres undefined)
3. CCOC(=O)CSCCC1NC(C(=O)O)CS1 (centres undefined)

Result:
108
102
103

Task: What measured cell viability goes with "Fc1ccc2nc(CCC#Cc3ccccn3)cn2c1" ?
Result: 99.9

###

# Tested on: HepG2
# Method Notes: cell viability relative to DMSO; higher = less toxic
# Condition Description: 72 h; 1000 nM
Could you please report measured cell viability for the items listed next?
Answers are plain numbers, in %.

CO[C@H]1C[C@@H]2CC[C@@H](C)[C@@](O)(O2)C(=O)C(=O)N2CCCC[C@H]2C(=O)O[C@H]([C@H](C)C[C@@H]2CC[C@H](n3cnnn3)[C@H](OC)C2)CC(=O)[C@H](C)/C=C(\C)[C@@H](O)[C@@H](OC)C(=O)[C@H](C)C[C@H](C)/C=C/C=C/C=C/1C ... 62.9

Items follow; give cell viability for each.
1. Cc1nc(C)c(Cl)c(O)c1Cl
2. CNC(=O)c1c(-c2ccc(F)cc2)oc2cc(N(CCO)S(C)(=O)=O)c(C3CC3)cc12
3. Fc1ccc([C@@H]2CCNC[C@H]2COc2ccc3c(c2)OCO3)cc1
4. CN1CCN(c2ccc(-c3cccc(CN4CCOCC4)c3)cc2NC(=O)c2c[nH]c(=O)cc2C(F)(F)F)CC1
5. O=C(Nc1ccc(Br)cc1)c1cc(Br)cc(Br)c1O
6. CS(=O)(=O)c1ccc(-c2nnc(/C=C/c3nnc(-c4ccc(C#N)cc4)o3)n2-c2ccccc2Cl)nc1

Result:
1: 99.2; 2: 92.2; 3: 83.7; 4: 95.8; 5: 99.7; 6: 92.8

###

# Test system: Vero E6
# Method Notes: cell viability relative to DMSO; higher = less toxic
# Condition Description: 72 h; 10000 nM
Metric: cell viability
Remember to quote the unit after the number.

Recorded cell viability, per entry:
Cc1cccc2c1CC[C@H](CN1CCC(c3c(Cl)cccc3Cl)CC1)C[C@@H]2O ... 70%
CC(C)NCC(O)c1cc(O)cc(O)c1 (stereo not drawn) ... 113%
CN1CCC(=C2c3ccccc3C=Cc3ccccc32)CC1 ... 79.3%
Fc1ccc([C@@H]2CCNC[C@H]2COc2ccc3c(c2)OCO3)cc1 ... 100%
Fc1cc(F)c2c(c1)[C@H]1C=CC[C@H]1C(c1cccnc1)N2 (stereo partly drawn) [Golgicide A] ... 4.4%

Items follow; give cell viability for each.
1. COc1ccc([C@@H]2CC(=O)c3c(O)cc(O)cc3O2)cc1O
2. CC(C)NCC(O)COc1cccc2[nH]ccc12 (stereo not drawn)
3. N=C(N)NCCC[C@@H](N)C(=O)N[C@@H](CCCNC(=N)N)C(=O)N1CCC[C@H]1C(=O)N1C[C@H](O)C[C@H]1C(=O)NCC(=O)N[C@@H](Cc1cccs1)C(=O)N[C@@H](CO)C(=O)N1Cc2ccccc2C[C@@H]1C(=O)N1[C@H](C(=O)N[C@@H](CCCNC(=N)N)C(=O)O)C[C@@H]2CCCC[C@@H]21 [icatibant-acetate]

Result:
1: 108%; 2: 95%; 3: 101%
